Source: the supplement of paper PMC11451515

Tested on: SEM cells
test_protocol: cell viability relative to DMSO control; higher = less cytotoxic
assay_context: HPLM + 10% dialyzed FBS; 48 h; 0.19 µM
The entries below come with measured cell viability values attached.
measured_property: cell viability (%)

molecule	unit_text	measurement
COc1cc([C@@H]2c3cc4c(cc3[C@H](O)[C@H]3COC(=O)[C@H]23)OCO4)cc(OC)c1OC	%	14.8
Cc1ccc(Nc2nccc(N(C)c3ccc4c(C)n(C)nc4c3)n2)cc1[S+](N)(=O)[O-]	%	91.7
Clc1ccc(C(Cn2ccnc2)OCc2ccsc2Cl)c(Cl)c1 (stereo not given)	%	110
N[C@@H](Cc1ccc(N(CCCl)CCCl)cc1)C(=O)O	%	116
Oc1ccc(-c2nc(-c3ccncc3)c(-c3ccc(F)cc3)[nH]2)cc1	%	69.1

###

System: NOMO1
test_protocol: cell viability relative to DMSO control; higher = less cytotoxic
assay_context: RPMI 5 mM glucose + 10% dialyzed FBS; 48 h; 0.0632 µM
The entries below come with measured cell viability values attached.

compound	cell viability (%)
CCOC(=O)c1c(/C(C#N)=C\N)c2ccc(Cl)c(Cl)c2n1C	79.2
CCCCc1ccc(N[S+](=O)([O-])c2ccc(C)c(C(=O)N3CCN(c4cccc(C)c4C)CC3)c2)cc1	126
O=C(N[C@H]1CN2CCC1CC2)c1ccc(Cl)cc1	108
Cc1nc(C(=O)NCC(=O)O)c(O)c2ccc(Oc3ccccc3)cc12	116
Oc1ccc(-c2nc(-c3ccncc3)c(-c3ccc(F)cc3)[nH]2)cc1	122
CCCC[N+]1(C)[C@@H]2CC(OC(=O)[C@H](CO)c3ccccc3)C[C@H]1[C@@H]1O[C@@H]12 (stereo partly drawn)	129
O=C(O)CCc1ccc(NCc2cccc(Oc3ccccc3)c2)cc1	105
COc1ccc2c(c1)CC[C@@H](CN(C)CC(=O)O)[C@H]2c1ccccc1	127
CN(C)Cc1cccc(N/C(=C2\C(=O)Nc3cc(C(=O)N(C)C)ccc32)c2ccccc2)c1	107
CC(C)N(CCCNC(=O)Nc1ccc(C(C)(C)C)cc1)C[C@H]1O[C@@H](n2cc(Br)c3c(N)ncnc32)[C@H](O)[C@@H]1O	90.1
CC/C(=C(\c1ccccc1)c1ccc(OCCN(C)C)cc1)c1ccccc1	115
O=C(O)C(=O)Nc1cccc(-c2nnn[nH]2)c1	112
CCC[S+](=O)([O-])Nc1ccc(F)c(C(=O)c2c[nH]c3ncc(-c4ccc(Cl)cc4)cc23)c1F	109
O=C(Nc1cccc2c(=O)cc(-c3nnn[nH]3)oc12)c1ccc(OCCCCc2ccccc2)cc1	94.1
C=C1C(=O)O[C@@H]2[C@H]3O[C@]3(C)CC/C=C(\C)CC[C@@H]12	114
Oc1ccc(C2CNCCc3c2cc(O)c(O)c3Cl)cc1 (stereo not drawn)	99.9
COc1cc([S+](C)(=O)[O-])ccc1Nc1nc2ccc(-c3ccc(NC(=O)[C@H](C)c4ccc(F)cc4)cc3)cn2n1	120
CNC(=O)c1cc(Oc2ccc(NC(=O)Nc3ccc(Cl)c(C(F)(F)F)c3)c(F)c2)ccn1	98.5

###

The entries below come with measured cell viability values attached.
Test system: P12-Ichikawa
test_protocol: cell viability relative to DMSO control; higher = less cytotoxic
assay_context: RPMI 5 mM glucose + 10% FBS; 48 h; 15.4 µM
measured_property: cell viability (%)

compound	measurement
COC1=C(CC=C(C)C)C2=C(\C=C/C(=O)O2)C=C1	81.9
COC1=CC=CC(=C1/C2=N/CC3=C(N=C(NC4=CC(=C(C=C4)C(O)=O)OC)N=C3)C5=CC=C(Cl)C=C25)F	22.1
CC[P](CC)(CC)=[Au][S][C@@H]1O[C@H](COC(C)=O)[C@@H](OC(C)=O)[C@H](OC(C)=O)[C@H]1OC(C)=O	2.08
COC(=O)[C@@H]1CC2=CC(=O)CC[C@]2(C)[C@@]23O[C@@H]2C[C@@]2(C)[C@@H](CC[C@@]24CCC(=O)O4)[C@H]13	135
CNC(=O)c1cc(Oc2ccc(NC(=O)Nc3ccc(Cl)c(C(F)(F)F)c3)c(F)c2)ccn1	86.8
O=C1C(CCC(O)c2ccc(F)cc2)C(c2ccc(O)cc2)N1c1ccc(F)cc1 (stereo unspecified)	121
O=C(O)CCc1ccc(NCc2cccc(Oc3ccccc3)c2)cc1	122
CN(C)Cc1cccc(N/C(=C2\C(=O)Nc3cc(C(=O)N(C)C)ccc32)c2ccccc2)c1	90.3
Cc1nc(N)sc1-c1ccnc(Nc2ccc(N3CCOCC3)cc2)n1	24.6
CCCCCCCN(CC)CCCC(O)c1ccc(NS(C)(=O)=O)cc1.CCCCCCCN(CC)CCCC(O)c1ccc(NS(C)(=O)=O)cc1.O=C(O)/C=C/C(=O)O (stereo unspecified)	89.6
COc1ccc(CC2SC(=O)NC2=O)cc1C(=O)NCc1ccc(C(F)(F)F)cc1 (stereo unspecified)	77.2
NCC/1=C/NC(=S)N1[C@H]2CCC3=C(F)C=C(F)C=C3C2	116
O=C(N[C@H]1CN2CCC1CC2)c1ccc(Cl)cc1	101
CC(C)C[C@@H](C(=O)N[C@H](C(=O)OC1CCCC1)c1ccccc1)[C@H](O)C(=O)NO	69.8
NC/1=N/C(=O)C2=C([NH]C=C2CCC3=CC=C(C=C3)C(=O)N[C@@H](CCC(O)=O)C(O)=O)N1	54.9
CCN(CCO)CCCC(C)Nc1ccnc2cc(Cl)ccc12 (stereo unspecified)	27.3
Cc1n[nH]c(C)c1Cc1sc2c(c1C(=O)N1C[C@H](O)CO1)c(=O)n(C)c(=O)n2CC(C)C	89.9
CC(=O)OCC(CCn1cnc2cnc(N)nc21)COC(C)=O	106
CCC[S+](=O)([O-])Nc1ccc(F)c(C(=O)c2c[nH]c3ncc(-c4ccc(Cl)cc4)cc23)c1F	96.4
CN1CCN(c2cc(C(=O)Nc3ccc4c(c3)-c3c(c(C(N)=O)nn3-c3ccc(F)cc3)CC4)c(Cl)cn2)CC1	104
CN(C)c1ccccc1CN1CCCN(Cc2ccccc2N(C)C)C1c1ccncc1	102
COC(=O)Nc1nc2cc(Sc3ccccc3)ccc2[nH]1	29.3
O=C(O)C(=O)Nc1cccc(-c2nnn[nH]2)c1	116
Cc1ccc(Nc2nccc(N(C)c3ccc4c(C)n(C)nc4c3)n2)cc1[S+](N)(=O)[O-]	78.4
Cc1nc(C(=O)NCC(=O)O)c(O)c2ccc(Oc3ccccc3)cc12	99.2
Oc1ccc(-c2nc(-c3ccncc3)c(-c3ccc(F)cc3)[nH]2)cc1	60.7
